Item-by-item account of Results of Judgment 30 sec (Log decrease of number of bacteria vs control)
Test system: Fusobacterium nucleatum JCM 6328 (Fn-1)
method_notes: Bactericidal activity, CFU measuring method per Quantitative Suspension Test (EN 1276)
Assay type: cell-based
study_conditions: 500 ppm, 30 sec contact
Express your answer in Log, writing the number without its unit.

CC1(C)C[C@H]2[C@H]1CC[C@]1(C)CCC[C@@]2(O)C1
1.13
C=C(C)[C@H]1CC=C(C)CC1
0.93
CC1=CCC(C(C)C)=CC1
0.94

## Input Requested read-out: Results of Judgment 30 sec (Log decrease of number of bacteria vs control). Entry: C=C1CCC2CC1C2(C)C (centres unmarked)
## Output 0.71
